Biological target: T1, Human TREM2 protein, on cells (human, UniProt Q9NZC2 19-230)
T1 sequence: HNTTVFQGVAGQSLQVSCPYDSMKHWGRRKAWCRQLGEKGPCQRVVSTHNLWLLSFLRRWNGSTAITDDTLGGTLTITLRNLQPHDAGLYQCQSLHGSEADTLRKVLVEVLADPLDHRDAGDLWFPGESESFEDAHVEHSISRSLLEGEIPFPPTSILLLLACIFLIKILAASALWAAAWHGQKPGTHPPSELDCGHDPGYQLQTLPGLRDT
Assay: cell-based or functional assay
Label yes for high-side pSyk (nM), EC50 (at or above 30 nM) and no for low-side pSyk (nM), EC50 (below it).

binder	categoryLabel
RS9.F10 (antibody, V domains shown, same entries as RS9.F6; also called RS.F10) VH: QVQLQQPGAELVKPGASVKLSCKASGYTFTSYWMHWVKQSPGRGLEWIGRSDPTTGGTNYNEKFKTKATLTVDKPSSTAYMQLSSLTSDDSAVYYCVRTSGTGDYWGQGTSLTVSS VL: DVVMTQTPLSLPVSLGDQASISCRSSQSLVHNNGNTFLHWYLQKPGQSPKLLIYKVSNRFSGVPDRFSGSGSGTDFTLKISRVEAEDLGVYFCSQTTHVPPTFGGGTKLEIK	no
49H11.B1 (antibody, IgG3, V domains shown, Mouse hybridoma antibody, IgG3, k; also called RS8.49H11.B1) VH: DVQLQESGPGLVKPSQSLSLTCTVTGYSITSDYAWNWIRQFPGNRLEWMGYISFSGSTSYNPSLKSRISITRDTSKNQFFLQLNSVTTEDTATYYCARWNGNYGFAYWGQGTLVTVSA VL: DVVMTQTPLSLPVSLGDQASISCRSSQSLVHINGNTYLHWYLQKPGQSPKLLIYKVSNRFSGVPDRFSGSGSGTDFTLKISRVEAEDLGVYFCSQSTHVTFTFGSGTKLEIK	no
RS9.F6 (antibody, V domains shown) VH: QVQLQQPGAELVKPGASVKLSCKASGYTFTSYWMHWVKQSPGRGLEWIGRSDPTTGGTNYNEKFKTKATLTVDKPSSTAYMQLSSLTSDDSAVYYCVRTSGTGDYWGQGTSLTVSS VL: DVVMTQTPLSLPVSLGDQASISCRSSQSLVHNNGNTFLHWYLQKPGQSPKLLIYKVSNRFSGVPDRFSGSGSGTDFTLKISRVEAEDLGVYFCSQTTHVPPTFGGGTKLEIK	no
54C2.A1 (antibody, V domains shown, Mouse hybridoma antibody, Ig2b, k; also called RS8.54C2.A1) VH: QVHLQQSGSELRSPGSSVKLSCKDFDSEVFPIAYMSWVRQKPGHGFEWIGDILPSIGRRIYGVKFEDKATLDADTVSNTAYLELNSLTSEDSAIYYCTRKDYGSLAYWGQGTLVTVSA VL: DVVMTQTPLSLPVSLGDQASISCRSSQSLVHINGNTYLQWYLQKPGQSPKLLIYKVSNRFSGVPDRFSGSGSGTDFTLRISRVEAEDLGVYFCSQSTHLPYTFGGGTKLEIK	yes

Query binder follows.
Prompt: Determine whether this binder has pSyk (nM), EC50 no lower than 30 nM: 24B4.A1 (antibody, V domains shown, Mouse hybridoma antibody, Ig2a, k; same entries as 26E2.A3; also called RS8.24B4.A1) VH: QVHLQQSGSELRSPGSSVKLSCKDFDSEVFPISYMSWIRQKPGHGFEWIGDILPSIGGRIYGVKFEDRATLDADTVSNTAYLELNSLTSEDSAIYYCARKDYGSLAYWGQGTLVTVSA VL: DVVMTQTPLSLPVSLGDQASISCRSSQSLVHINGNTYLQWFLQKPGQSPKLLIYKVSNRFSGVPDRFSGSGSGTAFTLKISRVEAEDLGVYFCSQSTHVPYTFGGGTKLEIK
Response: yes

FYI, the data here is from patent US20200277373A1.
